// provenance: the supplement of paper PMC10567573

B1: POMT2 (parent)
chain: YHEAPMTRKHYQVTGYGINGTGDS

- Variants of: B1
- experiment: protein stability index of a GFP-peptide fusion (GPS, HEK-293T) (PSI 1-6); higher = more stable;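 further: lentivirally expressed fusions sorted by FACS into six bins by GFP to DsRed ratio, PSI derived from sequencing read proportions per bin multiplied by bin number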
- experimental_conditions: c terminus: a fixed tail appended
Kind request: treat 2 as inclusive, so protein stability index at 2 or higher is Met, anything lower is Not met.

Worked set:
mutation_label: T14H
discrete_label: Met
//
mutation_label: Y16S
discrete_label: Met
//
mutation_label: G15F
discrete_label: Not met
//
mutation_label: P5N
discrete_label: Met
//
mutation_label: P5H
discrete_label: Met

Kindly determine if protein stability index recorded for "A4Y" is above or exactly 2.
Met

Kindly determine if protein stability index recorded for "T14A" is above or exactly 2.
Not met

Kindly determine if protein stability index recorded for "K9E" is above or exactly 2.
Met

Kindly determine if protein stability index recorded for "G22N" is above or exactly 2.
Met

Kindly determine if protein stability index recorded for "T14P" is above or exactly 2.
Met

Kindly determine if protein stability index recorded for "M6L" is above or exactly 2.
Met

Kindly determine if protein stability index recorded for "P5I" is above or exactly 2.
Met

Kindly determine if protein stability index recorded for "K9H" is above or exactly 2.
Not met
